B1: HaloTag-CRBN (human, wild type) [human] / hCRBN-NanoLuc with a 191-248 aa deletion (Trunc) [human] (parent)
chain 1: MAGEGDQQDAAHNMGNHLPLLPAESEEEDEMEVEDQDSKEAKKPNIINFDTSLPTSHTYLGADMEEFHGRTLHDDDSCQVIPVLPQVMMILIPGQTLPLQLFHPQEVSMVRNLIQKDRTFAVLAYSNVQEREAQFGTTAEIYAYREEQDFGIEIVKVKAIGRQRFKVLELRTQSDGIQQAKVQILPECVLPSTMSAVQLESLNKCQIFPSKPVSREDQCSYKWWQKYQKRKFHCANLTSWPRWLYSLYDAETLMDRIKKQLREWDENLKDDSLPSNPIDFSYRVAACLPIDDVLRIQLLKIGSAIQRLRCELDIMNKCTSLCCKQCQETEITTKNEIFSLSLCGPMAAYVNPHGYVHETLTVYKACNLNLIGRPSTEHSWFPGYAWTVAQCKICASHIGWKFTATKKDMSPQKFWGLTRSALLPTIPDTEDEISPDKVILCL
chain 2: MAGEGDQQDAAHNMGNHLPLLPAESEEEDEMEVEDQDSKEAKKPNIINFDTSLPTSHTYLGADMEEFHGRTLHDDDSCQVIPVLPQVMMILIPGQTLPLQLFHPQEVSMVRNLIQKDRTFAVLAYSNVQEREAQFGTTAEIYAYREEQDFGIEIVKVKAIGRQRFKVLELRTQSDGIQQAKVQILPECVLDAETLMDRIKKQLREWDENLKDDSLPSNPIDFSYRVAACLPIDDVLRIQLLKIGSAIQRLRCELDIMNKCTSLCCKQCQETEITTKNEIFSLSLCGPMAAYVNPHGYVHETLTVYKACNLNLIGRPSTEHSWFPGYAWTVAQCKICASHIGWKFTATKKDMSPQKFWGLTRSALLPTIPDTEDEISPDKVILCL

Variants of: B1
Experiment: NanoBRET
Settings: with hCRBN-NanoLuc with a 191-248 aa deletion (Trunc) [human]; MRT-31619 at log10 concentration = 4 (highest dose; concentration unit inferred); three biological replicates, mean ± SEM; read off a plot
value kind: response (mBU)
One number for each entry, in mBU.

Sample records with response:
mutant id	output unit	reported result
chain 1 F150A R373A	mBU	2.9
chain 1 F150A	mBU	3.7
chain 1 E377A	mBU	3.3

Lookup: Return the recorded response value; entry: chain 1 R373A
Found: 2.6

Just for reference, paper PMC12630686 is where these values come from.
